Experiment: NCI Yeast Anticancer Drug Screen. Data for the bub3 strain (AID 167)
Details: S. cerevisiae bub3 mutant strain, at 50.0 µM, hits give high values
This is part of a sample that, as a whole, favours compounds with a hit. Of some 79,000 tested, about 15% had one in any assay.
reported property: growth inhibition (%)

>>> print(df.to_string())
                                    compound  reported_property  test_result
 0                     NNC(=O)CNc1cccc(Br)c1  growth inhibition        -32.4
 1                  O=C(COc1ccc(Cl)cc1)OCCCl  growth inhibition          9.3
 2                           Nc1ccc(Cl)cc1Cl  growth inhibition         -0.1
 3      CN(C)c1ccc(/C=C2\Cc3ccccc3C2=O)cc1Br  growth inhibition        -8.55
 4           Cc1cc(=O)[nH]c(/N=C(/N)N(C)C)n1  growth inhibition          8.2
 5                    Oc1c(O)c(O)c(O)c(O)c1O  growth inhibition        -0.45
 6           O=c1oc(-c2ccccc2)c(-c2ccccc2)o1  growth inhibition         45.6
 7  Cc1cc2c(=O)cc(-c3ccc(Cl)cc3Cl)oc2c(C(=O)O)c1C  growth inhibition         11.6
 8    CC1CNC(=S)SSC(=S)N1 (stereo not given)  growth inhibition         14.1
 9  C1=Cc2nc1c(-c1ccncc1)c1ccc([n-]1)c(-c1ccncc1)c1nc(c(-c3ccncc3)c3ccc([n-]3)c2-c2ccncc2)C=C1.[Zn+2]  growth inhibition         18.9
10    O=C(Nc1ccc(N=C=S)cc1Cl)c1ccc2ccccc2c1O  growth inhibition         4.05
11            CCc1cccc(CC)c1NC(=O)c1ccccc1Br  growth inhibition        -0.05
12  COc1cc(/C=N/NC(=O)N/N=C/c2cc(OC)c(OC)c(OC)c2)cc(OC)c1OC  growth inhibition         0.95
13  COC1=NC(NC2OCC(O)C(O)C2O)=C(NC(C)=O)CN1C (stereo not given)  growth inhibition        -31.7
14  O=C(c1ccccc1)C1(c2ccccc2)C(C(=O)c2ccccc2)(c2ccccc2)S1(=O)=O (stereo not given)  growth inhibition         -6.6
15  COC(=O)C1(C)CCCC2(C)C1CCC1(O)C2CC2OC2(C(C)C)C1O (stereo not given)  growth inhibition        -13.2
16                 COC(=O)CCNC(=O)OCc1ccccc1  growth inhibition        -49.6
17  CONC(CC(=O)c1ccccc1)c1ccccc1 (stereo not given)  growth inhibition         14.2
18                         CCCCCCCCNC(=O)CBr  growth inhibition         13.3
19                 Cc1ccn2c(-c3ccccc3)nnc2c1  growth inhibition        -18.1
20   O=C(COC(=O)c1ccccc1)c1ccc(-c2ccccc2)cc1  growth inhibition         14.2
21                Cc1noc2cccc(OCc3ccccc3)c12  growth inhibition         17.4
22                         CCOC(=O)Cc1ccccn1  growth inhibition        -14.9
23  O=C1CN(c2cccc(Cl)c2)C(=O)CN1CCN1CC(=O)N(c2cccc(Cl)c2)CC1=O  growth inhibition        -37.5
24   CCOC(=O)c1ccccc1OC(=O)Oc1ccccc1C(=O)OCC  growth inhibition        -5.55

###

Assay: NCI Yeast Anticancer Drug Screen. Data for the bub3 strain (AID 167)
Settings: S. cerevisiae bub3 mutant strain, at 50.0 µM, hits give high values
Method: Growth inhibition of yeast strains with defined genetic alterations is measured as a screen for potential anti-cancer activity. Selected strains with alterations in DNA damage repair or cell cycle control were exposed to compounds and growth inhibition was measured relative to vehicle treated controls. The strain used in this assay is bub3
The panel holds about 79,000 compounds, 15% with a hit somewhere; the sample as a whole holds those more often.
Reported growth inhibition values follow for various compounds
reported property: growth inhibition (%)

>>> df
                                    compound  reported_property  reading_unit  test_result
 0  CC1(C)COC(c2ccc(C(F)(F)F)cc2C(O)c2ccc3ccccc3c2)=N1 (centres undefined)  growth inhibition             %         -3.3
 1                              Cc1nc(N)sc1C  growth inhibition             %         25.6
 2    CCCCCOC(=O)CC(CC(=O)OCCCCC)C(=O)OCCCCC  growth inhibition             %        -28.6
 3  CC(C)(C)c1cc(Nc2c([N+](=O)[O-])cc([N+](=O)[O-])cc2[N+](=O)[O-])cc(C(C)(C)C)c1O  growth inhibition             %         -5.4
 4  CC1CCC(=N\O)/C(=N/O)C1 (centres undefined)  growth inhibition             %         0.65
 5     CN(C)CCN(C)CC(C)(C)C(=O)/C=C/c1ccccc1  growth inhibition             %        -7.15
 6   CCCCCCCCC(=O)OCC(=O)c1ccc(-c2ccccc2)cc1  growth inhibition             %          3.3
 7   CCCCC(C(=O)O)C(C)CC (centres undefined)  growth inhibition             %         36.5
 8  COC(OC)C1(CCc2ccccc2)NC(=O)N(C)C1=O (centres undefined)  growth inhibition             %         25.6
 9                               CCc1cnccc1C  growth inhibition             %         6.45
10     COc1ccc(/C(N=Nc2ccccc2)=N/N=C(N)N)cc1  growth inhibition             %         36.9
11  NC(=O)c1cn(C2OC(CO)C(O)C2O)c2nc(N)nc(N)c2c1=O (centres undefined)  growth inhibition             %         23.1
12  CCC/C(CC)=N\Nc1ccc([N+](=O)[O-])cc1[N+](=O)[O-]  growth inhibition             %         12.9
13           C[N+](C)(C)CCCSc1nc2ccccc2[nH]1  growth inhibition             %        -24.4
14                COc1ccc(OC)c(C2=CCCCCC2)c1  growth inhibition             %        -7.85
15  COC(=O)c1ccccc1CC1Cc2ccc3c(c2C1)CCC3 (centres undefined)  growth inhibition             %         2.55
16                 O=c1cccc(CCc2ccccc2)[nH]1  growth inhibition             %        -0.55
17  CCOc1ccccc1NC(=O)C(=O)C(/C(=N/N)C(=O)OC)c1nc2ccc([N+](=O)[O-])cc2[nH]c1=O (centres undefined)  growth inhibition             %        -1.35
18                           CN1CCN(CCCO)CC1  growth inhibition             %         5.05
19  CCOc1cc(CC[N+](C)(C)C)c2c(ccc3ccc(OC)c(OC)c32)c1OC  growth inhibition             %        -15.8
20  Cc1ccc(OP2(Oc3ccc(C)cc3)=NP(Oc3ccc(C)cc3)(Oc3ccc(C)cc3)=NP(Oc3ccc(C)cc3)(Oc3ccc(C)cc3)=N2)cc1  growth inhibition             %          2.7
21  Cc1[nH]c2ccccc2c1CC1CC(=O)OC1=O (centres undefined)  growth inhibition             %        -9.15
22  Cc1ccc(C2(c3ccc(Cl)cc3)c3ccccc3C3=NCCN32)cc1 (centres undefined)  growth inhibition             %         28.1
23     COC(=O)c1c(-c2ccc(OC)c(OC)c2)cn(C)c1C  growth inhibition             %         10.5
